Can you tell me Ratio (-BP/+BP), DF-1000005 for the items I'm about to list?
Molecular target: T1, IL-18 binding protein (IL-18BP) (UniProt O95998 31-194)
T1 sequence (looked up): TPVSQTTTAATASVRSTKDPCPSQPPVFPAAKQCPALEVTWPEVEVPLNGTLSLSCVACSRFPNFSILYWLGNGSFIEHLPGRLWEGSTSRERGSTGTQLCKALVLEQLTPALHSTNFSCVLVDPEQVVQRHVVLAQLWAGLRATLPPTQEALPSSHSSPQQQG
Experiment: cell-based or functional assay
One number for each entry.

Example entries and their recorded answers appear below.
[
  {
    "binder": "IL-18 variant G3P, E6D, K53T, D54N, T63A, N91T, R104P (ligand) YFPKLDSKLSVIRNLNDQVLFIDQGNRPLFEDMTDSDMRDNAPRTIFIISMYTNSQPRGMAVAISVKSEKISTLSSENKIISFKEMNPPDTIKDTKSDIIFFQPSVPGHDNKMQFESSSYEGYFLASEKERDLFKLILKKEDELGDRSIMFTVQNED",
    "quantitative-result": 0.95
  },
  {
    "binder": "IL-18 variant G3P, E6R, K53T, D54Y, S55I, T63V, N91G, R104K (ligand) YFPKLRSKLSVIRNLNDQVLFIDQGNRPLFEDMTDSDMRDNAPRTIFIISMYTYIQPRGMAVVISVKSEKISTLSSENKIISFKEMNPPDGIKDTKSDIIFFQKSVPGHDNKMQFESSSYEGYFLASEKERDLFKLILKKEDELGDRSIMFTVQNED",
    "quantitative-result": 0.93
  }
]

As a next step, examine the binder that follows.
Which Ratio (-BP/+BP), DF-1000005 value is on record for IL-18 variant G3Q, E6H, K53T, D54S, S55Y, N91Y, R104K (ligand) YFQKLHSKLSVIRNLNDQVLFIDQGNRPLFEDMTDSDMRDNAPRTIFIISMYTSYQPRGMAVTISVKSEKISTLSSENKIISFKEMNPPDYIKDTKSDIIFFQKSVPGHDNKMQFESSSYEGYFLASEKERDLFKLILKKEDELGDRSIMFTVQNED ?
1.03

The measured values listed here are drawn from patent US20240182536A1.
